- system under test: T1, Abeta peptide (40-amino acid Abeta peptide, SEQ ID NO: 1), biotinylated (human, N-terminal biotin or C-terminal lysine-linked biotin, separated from the peptide by a PEG6 linker)
- T1 construct: Synthesized by Genscript; also called amyloid beta; test peptide
- T1 sequence (peptide, as listed by the source): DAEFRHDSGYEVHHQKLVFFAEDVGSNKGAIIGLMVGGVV
- assay remarks: BLI (Octet HTX), biotinylated Abeta on streptavidin sensors, 1 uM VHH, 1:1 fit
y if kon is below 10000 M⁻¹ s⁻¹. n if not; exact matches included in n.

// known answers, use as guide
binder: vhhLib05-49 (VHH, also called 20BHK) VHH: EVQLLESGGGLVQPGGSLRLSCAASGFTFSSYAMSWVRQAPGKQREWVSAISGSGGSTYYADSVKGRFTISRDNSKNTLYLQMNSLRAEDTAVYYCARDTNQPYHGRYVYTYDFDVWGQGTLVTVSS
group: n
//
binder: vhhLib02-21 (VHH, The entry as printed includes HHHHHH) VHH: EVQLVESGGGLVQPGGSLRLSCAASGFTFSLYTMSWYRQAPGKQRELVSAISSGGSTYYADSVKGRFTISRDNSKNTLYLQMNSLRAEDTAVYYCARYDYSWWYFDLWGQGTLVTVSS
group: y
//
binder: vhhLib01-49 (VHH, The entry as printed includes HHHHHH) VHH: QVQLVESGGGLVQPGGSLRLSCAASGSIFSHNTMGWYRQAPGKQRELVAAINSGGSTNYADSVKGRFTISRDNAKNTVYLQMNSLKPEDTAVYYCARYIQTYTWGYFDYWGQGTLVTVSS
group: y

Quick check: kon of vhhLib02-53 (VHH, The entry as printed includes HHHHHH; also called 06BHK) VHH: EVQLVESGGGLVQPGGSLRLSCAASGFTFSRYLMSWYRQAPGKQRELVGAIASGGVTYYADSVKGRFTISRDNSKNTLYLQMNSLRAEDTAVYYCARGNPSERLYYYFDYWGQGTLVTVSS under 10000 M⁻¹ s⁻¹?
n

Also vhhLib02-93 (VHH, The entry as printed includes HHHHHH) VHH: EVQLVESGGGLVQPGGSLRLSCAASGFTFSDYHMSWYRQAPGKQREPVSVINSGGYTYYADSVKGRFTISRDNSKNTLYLQMNSLRAEDTAVYYCARAQAAHYLYGYFDIWGQGTLVTVSS ?
y

Also vhhLib05-21 (VHH, The entry as printed includes a doubled TLVTVSS and HHHHHH; also called 16BHK) VHH: EVQLLESGGGLVQPGGSLRLSCAASGFTFSNYAMSWVRQAPGKQREWVSVISGNGSSTYYADSVKGRFTISRDNSKNTLYLQMNSLRAEDTAVYYCARLVQLPWVPISAFDVWGQGTLVTVSS ?
n

Also vhhLib05-28 (VHH, The entry as printed includes a doubled TLVTVSS and HHHHHH) VHH: EVQLLESGGGLVQPGGSLRLSCAAAGFTFSSYAMSWVRQAPGKQREWVSAISGSGGSTYYADSVKGRFTISRDNSKNTLYLQMNSLRAEDTAVYYCARLSHNSQGTVVYNYFDIWGQGTLVTVSS ?
y

Also vhhLib01-86 (VHH, The entry as printed includes a doubled TLVTVSS and HHHHHH; also called vhbLib01-86) VHH: QVQLVESGGGLVQPGGSLRLSCAASGSIFSANHMGWYRQAPGKQRELVAAILSGGVTNYADSVKGRFTISRDNAKNTVYLQMNSLKPEDTAVYYCARGQVDTKYGYYYFDSWGQGTLVTVSS ?
y

Also vhhLib01-2 (VHH, The entry as printed includes HHHHHH) VHH: QVQLVESGGGLVQPGGSLRLSCAASGSIFSANHMGWYRQAPGKQRELVAAISSGGLTNYADSVKGRFTISRDNAKNTVYLQMNSLKPEDTAVYYCARHQTKIYNLHYYYFDYWGQGTLVTVSS ?
n
